Reported pIC50 values are given for each entry in this list.
- Experimental Target: ATM (Homo sapiens (Human))
- Sequence (Q13315 whole entry, looked up): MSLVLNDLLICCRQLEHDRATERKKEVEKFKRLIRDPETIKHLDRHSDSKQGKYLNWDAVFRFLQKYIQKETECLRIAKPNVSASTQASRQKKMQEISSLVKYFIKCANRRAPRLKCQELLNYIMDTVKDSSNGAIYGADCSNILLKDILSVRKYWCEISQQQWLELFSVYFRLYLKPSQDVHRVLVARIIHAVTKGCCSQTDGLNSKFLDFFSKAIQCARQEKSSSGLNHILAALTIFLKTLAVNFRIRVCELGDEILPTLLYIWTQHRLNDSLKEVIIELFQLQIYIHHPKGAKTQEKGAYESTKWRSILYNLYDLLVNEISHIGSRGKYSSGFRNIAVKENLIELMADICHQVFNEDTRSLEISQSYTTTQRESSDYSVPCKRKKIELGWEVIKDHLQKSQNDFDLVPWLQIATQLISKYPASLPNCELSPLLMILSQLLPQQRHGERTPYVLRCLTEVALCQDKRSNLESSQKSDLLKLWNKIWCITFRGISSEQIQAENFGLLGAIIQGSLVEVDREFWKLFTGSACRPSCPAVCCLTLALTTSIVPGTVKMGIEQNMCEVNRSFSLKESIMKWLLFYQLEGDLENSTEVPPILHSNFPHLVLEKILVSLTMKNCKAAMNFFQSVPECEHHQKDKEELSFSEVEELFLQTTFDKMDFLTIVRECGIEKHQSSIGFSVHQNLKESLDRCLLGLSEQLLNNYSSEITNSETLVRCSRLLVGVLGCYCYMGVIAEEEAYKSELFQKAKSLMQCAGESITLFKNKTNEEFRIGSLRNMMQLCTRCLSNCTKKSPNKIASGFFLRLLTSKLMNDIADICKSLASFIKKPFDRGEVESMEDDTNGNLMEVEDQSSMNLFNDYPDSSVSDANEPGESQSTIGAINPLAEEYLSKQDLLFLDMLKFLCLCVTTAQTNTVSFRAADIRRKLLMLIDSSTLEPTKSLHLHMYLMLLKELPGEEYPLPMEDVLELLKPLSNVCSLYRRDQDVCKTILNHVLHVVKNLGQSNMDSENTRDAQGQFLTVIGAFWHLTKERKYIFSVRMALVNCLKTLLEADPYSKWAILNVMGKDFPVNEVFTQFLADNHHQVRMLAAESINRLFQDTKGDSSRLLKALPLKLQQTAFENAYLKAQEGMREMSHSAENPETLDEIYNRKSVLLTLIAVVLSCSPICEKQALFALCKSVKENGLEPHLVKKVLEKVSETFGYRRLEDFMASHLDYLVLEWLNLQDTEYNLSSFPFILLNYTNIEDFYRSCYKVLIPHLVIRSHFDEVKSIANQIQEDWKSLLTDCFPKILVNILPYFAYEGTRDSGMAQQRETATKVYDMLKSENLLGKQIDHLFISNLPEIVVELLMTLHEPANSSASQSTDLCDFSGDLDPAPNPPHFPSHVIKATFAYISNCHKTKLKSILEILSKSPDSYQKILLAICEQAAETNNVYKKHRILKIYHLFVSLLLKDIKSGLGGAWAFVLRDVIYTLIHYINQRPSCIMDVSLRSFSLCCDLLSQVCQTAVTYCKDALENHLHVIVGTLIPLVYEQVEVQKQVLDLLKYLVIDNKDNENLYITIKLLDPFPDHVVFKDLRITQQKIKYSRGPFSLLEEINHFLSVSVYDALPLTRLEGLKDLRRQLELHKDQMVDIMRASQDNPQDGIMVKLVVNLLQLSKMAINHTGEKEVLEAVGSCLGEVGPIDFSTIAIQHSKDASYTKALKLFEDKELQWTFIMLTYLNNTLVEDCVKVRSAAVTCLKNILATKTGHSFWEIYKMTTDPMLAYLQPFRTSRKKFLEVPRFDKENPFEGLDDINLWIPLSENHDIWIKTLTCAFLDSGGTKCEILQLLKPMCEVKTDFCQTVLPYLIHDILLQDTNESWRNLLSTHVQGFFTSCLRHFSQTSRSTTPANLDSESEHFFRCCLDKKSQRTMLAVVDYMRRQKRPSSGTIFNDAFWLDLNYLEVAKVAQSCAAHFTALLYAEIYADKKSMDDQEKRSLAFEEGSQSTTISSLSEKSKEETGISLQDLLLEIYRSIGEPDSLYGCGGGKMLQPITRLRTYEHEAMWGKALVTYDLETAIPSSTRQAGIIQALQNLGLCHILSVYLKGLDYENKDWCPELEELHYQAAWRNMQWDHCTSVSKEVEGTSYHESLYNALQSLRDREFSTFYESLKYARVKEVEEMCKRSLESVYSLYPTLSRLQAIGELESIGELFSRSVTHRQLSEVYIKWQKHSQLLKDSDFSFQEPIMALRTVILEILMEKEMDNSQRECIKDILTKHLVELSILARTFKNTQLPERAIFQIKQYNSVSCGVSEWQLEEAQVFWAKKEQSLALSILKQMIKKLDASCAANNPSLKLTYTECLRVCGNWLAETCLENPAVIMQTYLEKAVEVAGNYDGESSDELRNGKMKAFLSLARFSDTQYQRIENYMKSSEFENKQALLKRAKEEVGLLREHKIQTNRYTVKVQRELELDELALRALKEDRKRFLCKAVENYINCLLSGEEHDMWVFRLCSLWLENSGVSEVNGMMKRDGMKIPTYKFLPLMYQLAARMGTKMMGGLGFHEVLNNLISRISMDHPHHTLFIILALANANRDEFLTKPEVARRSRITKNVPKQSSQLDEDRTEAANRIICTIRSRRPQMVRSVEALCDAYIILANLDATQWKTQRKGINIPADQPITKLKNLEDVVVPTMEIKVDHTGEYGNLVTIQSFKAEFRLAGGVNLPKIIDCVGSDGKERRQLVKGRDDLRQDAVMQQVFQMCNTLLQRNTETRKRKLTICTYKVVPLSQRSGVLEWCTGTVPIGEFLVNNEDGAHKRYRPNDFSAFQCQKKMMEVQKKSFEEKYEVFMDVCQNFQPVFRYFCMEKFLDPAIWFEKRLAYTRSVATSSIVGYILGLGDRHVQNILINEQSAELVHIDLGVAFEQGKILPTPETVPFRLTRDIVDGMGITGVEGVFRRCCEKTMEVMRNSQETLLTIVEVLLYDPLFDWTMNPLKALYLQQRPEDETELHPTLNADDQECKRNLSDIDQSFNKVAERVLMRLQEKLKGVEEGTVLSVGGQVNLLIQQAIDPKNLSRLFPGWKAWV
- Protocol Description: biochemical
- Type: biochemical
- Settings: read-out: ATM IC50
pIC50: −log10 of the molar value.

Compound	pIC50
Cn1c(=O)n(C2CCOCC2)c2c3cc(-c4ccc(COCCN5CCC(C)(C)CC5)nc4)ccc3nnc21	7.77
CC(C)n1c(=O)n(C)c2nnc3ccc(-c4ccc(COCCN5[C@H](C)CC[C@@H]5C)nc4)cc3c21	7.08
CC(C)n1c(=O)n(C)c2nnc3ccc(-c4ccc([C@@H](C)OCCN5CCC(C)(C#N)C5)nc4)cc3c21 (stereo partly shown)	7.96
C[C@@H](OCCN1CCC(F)CC1)c1ccc(-c2ccc3nnc4c(c3c2)n(C2CCOCC2)c(=O)n4C)cn1	8.43
Cn1c(=O)n(C2CCOCC2)c2c3cc(-c4ccc(COCCN5CC[C@@H](OC(F)F)C5)nc4)ccc3nnc21	7.40
CC(C)n1c(=O)n(C)c2nnc3ccc(-c4ccc([C@H](C)OCCN5CC6CC6C5)nc4)cc3c21 (stereo partly shown)	6.80
C[C@@H](OCCN1CCC2(CCO2)CC1)c1ccc(-c2ccc3nnc4c(c3c2)n(C2CCOCC2)c(=O)n4C)cn1	8.20
CC(C)n1c(=O)n(C)c2nnc3ccc(-c4ccc([C@@H](C)OCCN5CCC(OC(F)(F)F)CC5)nc4)cc3c21	8.85
CC(C)n1c(=O)n(C)c2nnc3ccc(-c4ccc(COCCN5CCCCC5)nc4)cc3c21	7.44
CC(C)n1c(=O)n(C)c2nnc3ccc(-c4ccc(COCCN5CC6C(C5)C6(F)F)nc4)cc3c21 (stereo not shown)	7.77
CC(C)n1c(=O)n(C)c2nnc3ccc(-c4ccc(COCCN5CCCC5)nc4)cc3c21	7.20
COC1CCN(CCO[C@H](C)c2ccc(-c3ccc4nnc5c(c4c3)n(C3CCOCC3)c(=O)n5C)cn2)CC1	8.16
CC(C)n1c(=O)n(C)c2nnc3ccc(-c4ccc(COCC(C)(C)N5CC6CC6C5)nc4)cc3c21 (stereo not shown)	6.33
CO[C@H]1CCN(CCO[C@H](C)c2ccc(-c3cc4c(cc3F)nnc3c4n(C(C)C)c(=O)n3C)cn2)C1	7.85
CO[C@H]1C[C@@H](n2c(=O)n(C)c3nnc4ccc(-c5ccc(COCCN(C)C)nc5)cc4c32)C1	7.19
CC(C)O[C@@H]1CCN(CCO[C@H](C)c2ccc(-c3ccc4nnc5c(c4c3)n(C3CCOCC3)c(=O)n5C)cn2)C1	8.12
CC(OCCN1CC2C(C1)C2(F)F)c1ccc(-c2ccc3nnc4c(c3c2)n(C(C)C)c(=O)n4C)cn1 (stereo in doubt) [Example 70]	6.53
CC(C)n1c(=O)n(C)c2nnc3ccc(-c4ccc(COCCN5CC[C@H](N(C)C)C5)nc4)cc3c21	7.36
CC(C)n1c(=O)n(C)c2nnc3cc(F)c(-c4ccc([C@@H](C)OCCN5CCC(C)(C)C5)nc4)cc3c21	8.20
CC(C)n1c(=O)n(C)c2nnc3ccc(-c4ccc(COCCCN5CC6CC6C5)nc4)cc3c21 (stereo not shown)	7.33
C[C@@H](OCCN1CCC(C)(C)CC1)c1ccc(-c2cc3c(cc2F)nnc2c3n(C3CCOCC3)c(=O)n2C)cn1	7.82
CC(C)n1c(=O)n(C)c2nnc3ccc(-c4ccc(COCCN5CCC(F)(F)CC5)nc4)cc3c21	7.21
CC(C)n1c(=O)n(C)c2nnc3ccc(-c4ccc([C@@H](C)OCCN5CCC(F)(F)CC5)nc4)cc3c21	7.72
CC(C)n1c(=O)n(C)c2nnc3ccc(-c4ccc(COCCN5CCCC(F)C5)nc4)cc3c21 (stereo not shown)	7.24
CC(C)n1c(=O)n(C)c2nnc3cc(F)c(-c4ccc(COCCN5CCC(C)(C)C5)nc4)cc3c21	7.66
